Tested on: SK-OV-3 ovarian
Assay: NCI tumour cell line growth inhibition, 48 h
# binarize TGI: threshold 40 µM inclusive, high side Criterion met, low side Criterion not met

O=C1CNS(=O)(=O)N1	Criterion met
CCOC(=O)C1(Cc2ccc3ccccc3c2)CCCCC(=O)N1 (stereo unspecified)	Criterion met
COc1cccc2c(=O)c3c(sc12)c(NCCCNCCO)nc1ccccc13	Criterion not met

Challenge: Form field: TGI at least 40 µM? Entry: `COc1ccc(C(=O)c2nc3ccccc3n2CC(=O)c2ccc(Cl)cc2)cc1`
Response given: Criterion met

----------
Tested on: NCI-H226 lung
Test: NCI tumour cell line growth inhibition, 48 h
result type: TGI (µM)
// units = µM; emit number, no label

O=C(CC1(O)C(=O)Nc2c(Cl)ccc(Cl)c21)c1ccc(Cl)cc1Cl (centres undefined)	30.5
CCCCCCCCCCCCCCCCCCOCC(COCCOCC[N+]1(CCCCCC(=O)[O-])CCCC1)Oc1ncccn1 (centres undefined)	26.7
O=C1/C(=C/c2ccc([N+](=O)[O-])cc2)COc2ccc(O)cc21	72.4
N#CC(C#N)=c1c2nsnc2c(=C(C#N)C#N)c2nsnc12	31.9

Challenge: Which measured TGI value corresponds to `[2H]c1nc(=Nc2cc(NC(=O)C=C)c(N(C)CCN(C)C)cc2OC)[nH]c(-c2cn(C([2H])([2H])[2H])c3ccccc23)c1[2H]` ?
Response given: 26

----------
Test system: HCT-15 colon
Experiment: NCI tumour cell line growth inhibition, 48 h
result type: TGI

Below, each entry is followed by its recorded TGI result.
c1ccc(C2CC(=NC3CCCCC3)Nc3ccccc3N2)cc1 (stereo not drawn)	> 100 µM
CN(C)CCCNC(=O)c1c(O)c2ccccc2n(C)c1=O	> 100 µM

Challenge: # lookup: TGI of CC(C)(C)c1ccc(OC2CCO2)cc1 (stereo not drawn)
Response given: 36.9 µM

Challenge: Please look up its TGI: `[2H]c1nc(=Nc2cc(NC(=O)C=C)c(N(C)CCN(C)C)cc2OC)[nH]c(-c2cn(C([2H])([2H])[2H])c3ccccc23)c1[2H]`
Response given: 3.05 µM

Challenge: Can you look up the measured TGI of `O=[N+]([O-])c1cc(Cl)ccc1Sc1ccccc1` for me?
Response given: > 100 µM

Challenge: Tell me the measured TGI of `Nc1ccc(-c2nn3c(COc4ccc(Cl)cc4)nnc3s2)cc1` , please.
Response given: > 100 µM

Challenge: Need TGI of `COC(=O)c1ccc2c(c1)C(=O)c1c-2n(CCCN=[N+]=[N-])c(=O)c2cc([N+](=O)[O-])ccc12` , thanks.
Response given: > 100 µM

Challenge: I have this compound here, `Cc1cccc(N(CC(=O)O)S(=O)(=O)c2ccccc2)c1` , and I need its recorded TGI.
Response given: > 100 µM

----------
System: PC-3 prostate
Experiment: NCI tumour cell line growth inhibition, 48 h
The label depends only on TGI: condition met if it is at least 30 µM, condition not met if it is smaller.

# count of solved cases: 8
O=C1OC(c2ccccc2)N(C(=O)c2ccccc2)C1Cc1ccc(OCc2ccccc2)cc1 (stereo unspecified)	condition met
O=S1(=O)c2cnccc2NC(=NCc2ccccc2)N1c1ccccc1	condition met
CCCCCCCCCCCCCCCCCCOCC(COCCOCC[N+]1(CCCCCC(=O)[O-])CCCC1)Oc1ncccn1 (stereo unspecified)	condition not met
COc1ccc(NC(C)c2ccncc2)cc1 (stereo unspecified)	condition met
CON(C)C(=O)C1CCCO1 (stereo unspecified)	condition met
COc1ccc(C2c3cc4c(cc3OC(NCCO)C2C)OCO4)cc1 (stereo unspecified)	condition met
O=C(/C=C/c1ccc2c(c1)OCO2)Cc1nc2ccccc2[nH]c1=O	condition met
COc1cc(/C=C2\CCC(C)/C(=C\c3cc(OC)c(OC)c(OC)c3)C2=O)cc(OC)c1OC (stereo unspecified)	condition not met

Challenge: Item `Cc1c(C)c(CC(=O)N2CC2)c(C)c(C)c1CC(=O)N1CC1` with TGI of 30 µM or above?
Response given: condition met

Challenge: Does the reported TGI for `c1ccc([P+](CCCCCCCC[P+](c2ccccc2)(c2ccccc2)c2ccccc2)(c2ccccc2)c2ccccc2)cc1` fall at or above the 30 µM mark?
Response given: condition met
